Data credit: the supplement of paper PMC10567573

B1: TRIM9 (parent)
chain: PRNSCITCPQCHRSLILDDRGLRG

- Variants of: B1
- Experiment: protein stability index of a GFP-peptide fusion (GPS, HEK-293T) (PSI 1-6); higher = more stable;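 also: lentivirally expressed fusions sorted by FACS into six bins by GFP to DsRed ratio, PSI derived from sequencing read proportions per bin multiplied by bin number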
- Conditions: c terminus: a fixed tail appended
Entries and their protein stability index values follow.
Please respond with just the number, no unit label.

> print(dat)
    var  result.number
1  L15R           2.13
2  D18K           2.24
3   R2T           2.56
4  L15T           2.59
5  S14C           2.92

Could you now consider this next variant?
Please indicate protein stability index recorded for P1K
2.48
